# Measured on: Human HPK1, catalytic domain (Homo sapiens)
# Construct: purchased Carna
# Sequence (Q92918 1-346): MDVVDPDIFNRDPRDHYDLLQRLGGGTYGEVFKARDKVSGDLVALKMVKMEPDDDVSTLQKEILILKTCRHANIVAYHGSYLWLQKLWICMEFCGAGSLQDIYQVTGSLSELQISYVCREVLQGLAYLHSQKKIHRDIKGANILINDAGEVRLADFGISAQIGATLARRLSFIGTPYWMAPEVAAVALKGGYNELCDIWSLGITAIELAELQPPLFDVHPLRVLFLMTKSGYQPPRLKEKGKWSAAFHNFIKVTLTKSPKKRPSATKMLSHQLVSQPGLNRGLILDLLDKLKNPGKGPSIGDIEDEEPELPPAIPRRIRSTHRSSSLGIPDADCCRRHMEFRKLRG
# Experiment: HPK1-SLP76 TR-FRET assay
# Assay type: biochemical
# Cond: 75 pM HPK1, 10 uM ATP, 10 nM SLP76, 30 min compound pre-incubation
pIC50: −log10 of the molar value.
Recorded endpoint: pIC50

Some molecules with recorded pIC50:
[[record]]
molecule = "COc1cc2c(cc1Nc1ncc(C(N)=O)c(Nc3cccc(CNC(=O)OC(C)(C)C)c3)n1)CN(C)CC2"
recorded_endpoint = "pIC50"
result_number = 8.80

[[record]]
molecule = "COc1cc2c(cc1Nc1ncc(C(N)=O)c(Nc3ccccc3Br)n1)CN(CC(F)(F)F)CC2"
recorded_endpoint = "pIC50"
result_number = 6.61


I = CN1CCc2cc(F)c(Nc3ncc(C(N)=O)c(Nc4cccc5c4CCNC5=O)n3)cc2C1
II = COc1cc2c(cc1Nc1ncc(C(=O)NN)c(Nc3ccccc3)n1)CN(C)CC2
## Task Input pair: I , II . Output: entry with lower pIC50. Please indicate the selected item by its label.
## Result II
(II: 7.63, I: 9.68)

P = COc1cc2c(cc1Nc1ncc(C(N)=O)c(Nc3ccccc3Br)n1)CN(C1CC(OC)C1)CC2 (centres unmarked)
Q = COc1cc2c(cc1Nc1ncc(C(N)=O)c(Nc3ccccc3SC(F)(F)F)n1)CN(C)CC2
## Task Input pair: P , Q . Output: entry with lower pIC50. Please indicate the selected item by its label.
## Result P
(P: 8.49, Q: 9.89)

1 = Cc1ccc(C(F)(F)F)cc1Nc1ncc(C(N)=O)c(Nc2cccc3c2CCNC3=O)n1
2 = COc1cc2c(cc1Nc1ncc(C(N)=O)c(Nc3c(O)cccc3F)n1)CN(C)CC2
## Task Hi team, can someone confirm which has the larger pIC50: 1 or 2 ? Thanks. Please indicate the selected item by its label.
## Result 2

====

# Measured on: Human HPK1, catalytic domain (Homo sapiens, UniProt Q92918)
# Sequence (Q92918 1-346): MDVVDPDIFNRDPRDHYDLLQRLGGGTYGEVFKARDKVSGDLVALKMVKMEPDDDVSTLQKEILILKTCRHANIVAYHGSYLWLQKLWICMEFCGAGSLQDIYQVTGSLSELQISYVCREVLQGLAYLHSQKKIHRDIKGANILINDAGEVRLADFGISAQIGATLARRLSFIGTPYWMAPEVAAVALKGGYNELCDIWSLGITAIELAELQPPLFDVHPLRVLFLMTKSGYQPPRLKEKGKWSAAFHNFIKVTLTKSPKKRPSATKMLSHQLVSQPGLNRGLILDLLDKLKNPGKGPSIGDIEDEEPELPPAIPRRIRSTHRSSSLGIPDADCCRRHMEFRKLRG
Recorded endpoint: IC50 (nM)

Some compounds with recorded IC50:
[[record]]
compound = "NC(=O)c1cnc(NCc2c(Cl)cccc2Cl)nc1Nc1cccc2c1CCNC2=O [Example 25-24]"
recorded_endpoint = "IC50"
result_number = 230

[[record]]
compound = "NC(=O)c1cnc(Nc2cnn(C3CCC3)c2)nc1Nc1cccc2c1CCNC2=O [Example 7-51]"
recorded_endpoint = "IC50"
result_number = 4.21

[[record]]
compound = "COc1cc2c(cc1Nc1ncc(C(N)=O)c(Nc3c(F)cccc3C(C)O)n1)CN(C)CC2 (racemic) [Example 23-2]"
recorded_endpoint = "IC50"
result_number = 0.82

[[record]]
compound = "COc1cc2c(cc1Nc1ncc(C(N)=O)c(N[C@H](C)c3cccc(F)c3F)n1)CN(C)CC2 [Example 26-20]"
recorded_endpoint = "IC50"
result_number = 0.45

[[record]]
compound = "NC(=O)c1cnc(Nc2ccc(C(F)(F)F)cc2)nc1Nc1cccc2c1CCNC2=O [Example 25-7]"
recorded_endpoint = "IC50"
result_number = 474

[[record]]
compound = "COc1cc2c(cc1Nc1ncc(C(N)=O)c(Nc3cc(C)ccc3Cl)n1)CN(C)CC2 [Example 4-18]"
recorded_endpoint = "IC50"
result_number = 0.48

[[record]]
compound = "COc1cc2c(cc1Nc1ncc(C(N)=O)c(Nc3cc(C)nn3CCO)n1)CN(C)CC2 [Example 7-90]"
recorded_endpoint = "IC50"
result_number = 1.44

[[record]]
compound = "CN1CCc2cc(F)c(Nc3ncc(C(N)=O)c(NC4CCc5cc(F)c(F)cc54)n3)cc2C1 (stereo not shown) [Example 26-54]"
recorded_endpoint = "IC50"
result_number = 0.97

[[record]]
compound = "Cc1cc(C)cc(Nc2ncc(C(N)=O)c(Nc3cccc4c3CCNC4=O)n2)c1 [Example 25-22]"
recorded_endpoint = "IC50"
result_number = 2.98

[[record]]
compound = "NC(=O)c1cnc(Nc2ccc(CC(F)(F)F)cc2)nc1Nc1cccc2c1CCNC2=O [Example 25-44]"
recorded_endpoint = "IC50"
result_number = 1.95


A = COc1cc2c(cc1Nc1ncc(C(N)=O)c(NC3CCCCCC3)n1)CN(C)CC2 [Example 26-1]
B = COC[C@H]1CCC[C@H]1Nc1nc(Nc2cc3c(cc2OC)CCN(C)C3)ncc1C(N)=O [Example 26-28]
C = COc1cc2c(cc1Nc1ncc(C(N)=O)c(Nc3ccccc3CC3(C#N)CCC3)n1)CN(C)CC2 [Example 13-11]
## Task Thanks in advance: please rank these 3 entries by IC50, highest to lowest. The labels, placed in the requested order, form the answer.
## Result B, C, A

P = COc1cc2c(cc1Nc1ncc(C(N)=O)c(Nc3cc(C(F)(F)F)cc4c3CCNC4)n1)CN(C)CC2 [Example 7-66]
Q = NC(=O)c1cnc(Nc2cccc(C(F)(F)F)c2F)nc1Nc1cccc2c1CCNC2=O [Example 25-42]
R = COc1cc(C2CCCN2)ccc1Nc1ncc(C(N)=O)c(Nc2ccccc2C(F)(F)F)n1 (stereo not shown) [Example 8-1]
S = COc1cc2c(cc1Nc1ncc(C(N)=O)c(N[C@H]3CC[C@@H](N(C)C)CC3)n1)CN(C)CC2 [Example 26-17]
T = COc1cc(C(=O)N2CCC(N(C)C)C2)ccc1Nc1ncc(C(N)=O)c(Nc2ccccc2C(F)(F)F)n1 (stereo not shown) [Example 11-2]
## Task Thanks in advance: please rank these 5 entries by IC50, highest to lowest. The labels, placed in the requested order, form the answer.
## Result T, Q, S, R, P
(T: 199 nM, Q: 89.9 nM, S: 60.2 nM, R: 1.26 nM, P: 0.15 nM)

I = CC(C)(C)c1ccc(Nc2ncc(C(N)=O)c(Nc3cccc4c3CCNC4=O)n2)cc1 [Example 25-35]
II = COc1cc2c(cc1Nc1ncc(C(N)=O)c(Nc3ccccc3Br)n1)CN(C(C)C)CC2 [Example 9-8]
## Task Input pair: I , II . Output: entry with lower IC50. Please indicate the selected item by its label.
## Result I

P = COc1cc2c(cc1Nc1ncc(C(N)=O)c(Nc3cc(C)nn3Cc3ccccc3)n1)CN(C)CC2 [Example 7-91]
Q = COc1cc2c(cc1Nc1ncc(C(N)=O)c(NCc3ccccc3O)n1)CN(C)CC2 [Example 26-57]
## Task Hi team, can someone confirm which has the larger IC50: P or Q ? Thanks. Please indicate the selected item by its label.
## Result P

1 = COc1cc(F)c(Nc2nc(Nc3cc4c(cc3OC)CCN(C)C4)ncc2C(N)=O)c(F)c1 [Example 4-15]
2 = COCCC(=O)N1CCc2cc(OC)c(Nc3ncc(C(N)=O)c(Nc4ccccc4Br)n3)cc2C1 [Example 12-4]
## Task Hi team, can someone confirm which has the larger IC50: 1 or 2 ? Thanks. Please indicate the selected item by its label.
## Result 2
(2: 380 nM, 1: 0.53 nM)

1 = NC(=O)c1cnc(Nc2cccc(F)c2)nc1Nc1cccc2c1CCNC2=O [Example 25-10]
2 = COc1cc2c(cc1Nc1ncc(C(N)=O)c(Nc3ccccc3C(F)(F)F)n1)C(C1CC1)N(C)CC2 (single isomer, unassigned) [Example 20-2]
3 = CCS(=O)(=O)N1CCc2cc(OC)c(Nc3ncc(C(N)=O)c(Nc4ccccc4Br)n3)cc2C1 [Example 10-6]
## Task Thanks in advance: please rank these 3 entries by IC50, highest to lowest. The labels, placed in the requested order, form the answer.
## Result 3, 1, 2
(3: 41.6 nM, 1: 1.22 nM, 2: 0.12 nM)

A = COc1cc2c(cc1Nc1ncc(C(N)=O)c(N[C@H]3c4ccccc4C[C@@H]3O)n1)CN(C)CC2 [Example 26-66]
B = NC(=O)c1cnc(Nc2cccc(OC(F)F)c2)nc1Nc1cccc2c1CCNC2=O [Example 25-16]
C = CC(C)N1CCn2nc(Nc3ncc(C(N)=O)c(Nc4cccc5c4CCNC5)n3)cc2CC1=O [Example 24-1]
## Task Number of compounds to sort: 3. Sort criterion: IC50, ascending. The labels, placed in the requested order, form the answer.
## Result C, B, A
